Values from ChEMBL document CHEMBL1201862

Answer each item with its documented GI50.
System: DLD-1
Assay: NCI tumour cell line growth inhibition, 48 h
Activity calls are given as the source filed them. Rule as the data show it: active = GI50 up to about 1.1 µM and inactive = higher.

Entry Cc1ccccc1-n1c(=O)sc2c(=O)n(-c3ccccc3)c(=S)[nH]c21 has what GI50? > 100 µM (inactive)

Entry O=C(CSSCC(=O)OCCS(=O)(=O)Nc1ccc(Br)cc1)OCCS(=O)(=O)Nc1ccc(Br)cc1 has what GI50? 15.7 µM (inactive)

Entry COc1ccccc1C(=O)N(Cc1ccccc1)c1ccc(Cl)c(C(=O)OC(C)C)c1 has what GI50? 18.1 µM (inactive)

Entry CC1(C)C(=NNC(=S)NN)C(C)(C)C1=NNC(=S)NN has what GI50? > 100 µM (inactive)

Entry O=C(O)c1cc2c(s1)C(=O)c1sccc1C2=O has what GI50? 14.4 µM (inactive)

Entry COC(=O)C(=O)C(C(=O)C(=O)Nc1ccc(OC)cc1[N+](=O)[O-])c1nc2ccc([N+](=O)[O-])cc2nc1O (stereo unspecified) has what GI50? > 100 µM (inactive)

----------
Test system: SK-OV-3
Experiment: NCI tumour cell line growth inhibition, 48 h
The source made the active and inactive calls. Rule as the data show it: active = GI50 up to about 1.1 µM and inactive = higher.
PROPERTY_LABEL: GI50

Entry CC12CCC3c4ccc(O)cc4CCC3C1C/C(=N\O)C2O (stereo not drawn) has what GI50? > 100 µM (inactive)

Entry CCOC(=O)C(=Cc1cc(OC)ccc1OC)C(=O)OCC has what GI50? 15.8 µM (inactive)

Entry COc1cccc(-c2cc(O)c3cc(N4CCN(C)CC4)ccc3n2)c1 has what GI50? 2.82 µM (inactive)

Entry OC(COc1cccc2ccccc12)CN1CCOCC1 (stereo not drawn) has what GI50? > 100 µM (inactive)

Entry N#Cc1cccc(NC(=O)c2ccc(C(=O)O)c(C(=O)c3ccc(C(=O)O)c(C(=O)Nc4cccc(C#N)c4)c3)c2)c1 has what GI50? > 100 µM (inactive)

Entry COc1ccc2cc(CNCCCN3CCN(CCCNCc4ccc5cc(OC)ccc5c4)CC3)ccc2c1 has what GI50? 1.42 µM (inactive)

Entry Nc1nc2sc3ccccc3c(=O)n2n1 has what GI50? > 100 µM (inactive)

Entry OCc1ccccc1O[C@H]1O[C@H](CO)[C@@H](O)[C@H](O)[C@H]1O has what GI50? > 100 µM (inactive)

Entry CC(CC(=O)Nc1ccc(NC(=O)CC(C)/N=N\C(N)=O)cc1)/N=N\C(N)=O (stereo not drawn) has what GI50? > 100 µM (inactive)

Entry CC[C@@H]1CC[C@@H]2[C@H](CC[C@]3(C)[C@@H](O)CC[C@@H]23)[C@H]1CO has what GI50? > 100 µM (inactive)

Entry O=C1N/N=C\Nc2ccc(cc2)S(=O)(=O)c2ccc(cc2)/N=C\NNC1=O has what GI50? > 100 µM (inactive)

Entry CCCCNS(=O)(=O)c1ccc(-c2ccc3c(c2)-c2ccc(S(=O)(=O)NCCCC)cc2S3(=O)=O)cc1 has what GI50? 16.9 µM (inactive)

Entry CCOC(=O)NC(=O)c1cn(C2OC(CO)C(O)C2O)c(=O)[nH]c1=O (stereo not drawn) has what GI50? > 100 µM (inactive)

Entry CCCCCCCC/C=C\CCCCCCC(F)C(=O)O (stereo not drawn) has what GI50? > 12.5 µM (inactive)

Entry [O-][n+]1c(-c2ccccc2)c2nc3ccccc3nc2c2ccccc21 has what GI50? > 100 µM (inactive)

Entry N/C(S)=N/N=C/c1cc(CN2CCOCC2)c(N)cn1 has what GI50? 53 µM (inactive)

Entry O=C1C2Nc3ccccc3SC2C(=O)N1c1cccc([N+](=O)[O-])c1 (stereo not drawn) has what GI50? > 100 µM (inactive)

Entry CCOC(=O)c1cn2c([nH]c3ccccc32)c(C#N)c1=O has what GI50? > 100 µM (inactive)

Entry CC1(C)C(=S)C(C)(C)C1=S has what GI50? > 100 µM (inactive)

Entry CC(=O)NS(=O)(=O)c1ccc(NC(=O)COC(=O)c2cccc3c(=O)c4ccccc4[nH]c23)cc1 has what GI50? > 100 µM (inactive)

Entry CCN(CC)CCn1c2cc3c(cc2c(=O)c2cccnc21)OCO3 has what GI50? 9.84 µM (inactive)

Entry O=C(OCCN=C1c2ccccc2CCc2ccccc21)c1cc([N+](=O)[O-])cc([N+](=O)[O-])c1 has what GI50? > 100 µM (inactive)

Entry O=P1(Cc2ccccc2)c2ccccc2-c2ccccc21 has what GI50? 15.7 µM (inactive)

Entry COc1cc([N+](=O)[O-])cc2c1NC(=O)C2(C)SC (stereo not drawn) has what GI50? 25.4 µM (inactive)

Entry O=C(Sc1n[nH]c(=O)[nH]c1=O)c1cccc2nc3ccccc3nc12 has what GI50? > 100 µM (inactive)

Entry Cc1nnc2n1-c1ccccc1-c1[nH]c3ccccc3c1C2 has what GI50? > 100 µM (inactive)

Entry O=C(CC1(O)C(=O)Nc2ccc(Br)cc21)c1ccc(Cl)cc1Cl (stereo not drawn) has what GI50? 79.1 µM (inactive)

Entry COc1cc(/C=C2\[C@H]3c4c(c(OC)c(C)c(OC)c4OC)C[C@@H](C(=O)N2Cc2ccccc2)N3C(=O)OC(C)C)c(OC)c(C)c1OC has what GI50? 2.52 µM (inactive)

Entry C/C(=N\NS(=O)(=O)c1ccccc1)c1ccc(Cl)c(Cl)c1 has what GI50? 67.3 µM (inactive)

Entry N#C/C(=C\c1cn(Cc2ccccc2)c2ccccc12)c1nn(-c2ccccc2)c(N)c1C#N has what GI50? 15.2 µM (inactive)

Entry Cc1cccc2c(=O)c3c(O)cc(O)cc3n(C)c12 has what GI50? > 100 µM (inactive)

Entry O=C(CC(=O)C1CCOC1=O)C(=O)Nc1ccc(Cl)cc1 (stereo not drawn) has what GI50? > 100 µM (inactive)

Entry CC(=O)CC(=O)ON(C)C(C)=O has what GI50? > 100 µM (inactive)
